tested on: S. typhimurium 14028S; type: cell-based, Salmonella typhimurium; conditions: mean of three; 16 to 20 hours at 35° C.; in µg/mL
No end group written: not given here.
endpoint: S. typhimurium 14028S MIC

Worked set:
FAKKLAKKLKKLAKLALAK-NH2 [P41] ... 4
FAKKLAKKLKKLAKKLAK-OH [P71] ... 8
FAVGLRAIKRALKKLRRGVRKVAKDL-NH2 [P157, reference compound] ... 8

INPUT: Return reported S. typhimurium 14028S MIC; argument: LPKWKVFKKIEKVGRNIRNGIVKAGPAIAVLGEAKALG-NH2 [P306, reference compound]
OUTPUT: 4

INPUT: Bench note: what S. typhimurium 14028S MIC did FAKKLAKLAKKALAL-NH2 [P39, FAKKLAKLAKKALAL-NH2] show?
OUTPUT: 16

----------
system: WI38; conditions: Table 27
No end group written: not given here.
endpoint: WI38 LD50
Output should be the measured figure followed by the unit it is expressed in.

FAKLLAKLAKKLL-NH2 [compound 43] ... 25 µg/mL
FAKLLAKLAKKVL-NH2 [compound 124] ... 21 µg/mL
VAKLLAKLAKKVL-NH2 [compound 154] ... 110 µg/mL

INPUT: Need WI38 LD50, item VAKLLAKLAKKLL-NH2 [compound 48]
OUTPUT: 160 µg/mL

----------
Test: in vitro
Format: cell-based, human
Conditions: human, human red blood cells, pH 7, Table 27; read-out: Hemolysis (LD50)
Protocol: This hemolytic assay is based upon that presented in Journal of Peptide Research 53: 82-90 (1999). […] All procedures were performed according to safety protocols pertaining to the handling and disposal of human body fluids. Red blood cells (RBCs) were washed three times with PBS (35 mM phosphate buffer 0.15 M NaCl, pH 7.0). […] The absorbance at 414 nm (A414) was measured, and used to calculate the percent hemolysis according to the following formula. […]
endpoint: HC50 at 1 h (µg/mL)
The figure you give is taken to be in µg/mL; do not add the unit.

INPUT: What value of HC50 at 1 h has been recorded for this entry: CC(C)C[C@H](NC(=O)[C@H](C)NC(=O)[C@H](CC(C)C)NC(=O)[C@H](CCCCN)NC(=O)[C@H](C)NC(=O)[C@H](CC(C)C)NC(=O)[C@H](CCCCN)NC(=O)[C@H](CCCCN)NC(=O)[C@H](C)NC(=O)[C@H](CC(C)C)NC(=O)[C@H](CCCCN)NC(=O)[C@H](C)NC(=O)[C@H](CC(C)C)NC(=O)[C@H](CCCCN)NC(=O)[C@H](CCCCN)NC(=O)[C@H](C)NC(=O)[C@@H](N)Cc1ccccc1)C(N)=O
OUTPUT: 100

----------
test system: WI38; conditions: MTT, 24 hours with peptide; normal fibroblast line
No end group written: not given here.
WI38 LD50 under 200 µg/mL gets TRUE, anything at or over 200 µg/mL gets FALSE.

Consider the following illustrative entries.
KTKLFKKFAKKLAKKLKKLAKKL-OH [P80] ... TRUE
FAKLLAKFLKKAL-NH2 [P113] ... TRUE
VALALKALKKALKKLKKALKKAL-NH2 [P30] ... TRUE
FAKKLAKKLAKAL-NH2 [P74, FAKKLAKKLAKAL-NH2] ... FALSE
FAKLLAKLAKLKL-NH2 [P66] ... FALSE
FAKKLAKKLKKLAKKLAK-OH [P71] ... FALSE
FAKLLALALKLKL-NH2 [P94] ... TRUE
FAKKFAKKFKKFAKKFAKFAFAF-NH2 [P301, reference compound] ... TRUE

INPUT: Find out if reported WI38 LD50 for KLLKLLLKLYKKLLKLL-OH [P156] is less than 200 µg/mL
OUTPUT: FALSE

INPUT: Dear reviewer, please state whether FALALKALKKAL-NH2 [P144, FALALKALKKAL-NH2] has WI38 LD50 strictly beneath 200 µg/mL.
OUTPUT: FALSE

----------
system: BMKC; test: Anti-cancer assay, MTT, LD50; type: cell-based; conditions: BMKC cloned melanoma line, 24 hours with peptide
No end group written: not given here.
Below is a list of entries, each paired with its recorded LD50 BMKC value.
Give the quantity in µg/mL, number only.

The cases that follow already have their LD50 BMKC on record.
FAKKALKALKKL-NH2 [P47] ... 700
KKVVFKVKFK-NH2 [P302, reference compound] ... 700
FAKLLAKLAKAKL-NH2 [P65] ... 250
FAKKLAKKLAKAAL-NH2 [P76, FAKKLAKKLAKAAL-NH2] ... 750

INPUT: Consider the substance FAKLLAKFLKKAL-NH2 [P113] and give its measured LD50 BMKC.
OUTPUT: 115

----------
tested on: PC3; test: Anti-cancer assay, MTT, LD50; assay type: cell-based; conditions: 24 hours with peptide, prostate adenocarcinoma
endpoint: PC3 LD50 (µg/mL)
# output: bare number, implied unit µg/mL

Look over these answered cases.
CC(C)C[C@H](NC(=O)[C@H](C)NC(=O)[C@H](CC(C)C)NC(=O)[C@H](CCCCN)NC(=O)[C@H](C)NC(=O)[C@H](CC(C)C)NC(=O)[C@H](CCCCN)NC(=O)[C@H](CCCCN)NC(=O)[C@H](C)NC(=O)[C@H](CC(C)C)NC(=O)[C@H](CCCCN)NC(=O)[C@H](C)NC(=O)[C@H](CC(C)C)NC(=O)[C@H](CCCCN)NC(=O)[C@H](CCCCN)NC(=O)[C@H](C)NC(=O)[C@@H](N)Cc1ccccc1)C(N)=O [P35] ... 5
CC(C)C[C@H](NC(=O)[C@H](C)NC(=O)[C@H](CC(C)C)NC(=O)[C@H](C)NC(=O)[C@H](CC(C)C)NC(=O)[C@H](CCCCN)NC(=O)[C@H](C)NC(=O)[C@H](CC(C)C)NC(=O)[C@H](CCCCN)NC(=O)[C@H](CCCCN)NC(=O)[C@H](C)NC(=O)[C@H](CC(C)C)NC(=O)[C@H](CCCCN)NC(=O)[C@H](C)NC(=O)[C@H](CC(C)C)NC(=O)[C@H](CCCCN)NC(=O)[C@H](CCCCN)NC(=O)[C@H](C)NC(=O)[C@@H](N)Cc1ccccc1)C(N)=O [P36] ... 19
CC[C@H](C)[C@H](N)C(=O)N[C@@H](CC(C)C)C(=O)N1CCC[C@H]1C(=O)N[C@@H](Cc1c[nH]c2ccccc12)C(=O)N[C@@H](CCCCN)C(=O)N[C@@H](Cc1c[nH]c2ccccc12)C(=O)N1CCC[C@H]1C(=O)N[C@@H](Cc1c[nH]c2ccccc12)C(=O)N[C@@H](Cc1c[nH]c2ccccc12)C(=O)N1CCC[C@H]1C(=O)N[C@@H](Cc1c[nH]c2ccccc12)C(=O)N[C@@H](CCCNC(=N)N)C(=O)N[C@@H](CCCNC(=N)N)C(N)=O [P63, reference compound] ... 290

Now let's try a different one.
INPUT: Reported PC3 LD50, molecule CC(C)C[C@H](NC(=O)[C@H](C)NC(=O)[C@H](CC(C)C)NC(=O)[C@H](CCCCN)NC(=O)[C@H](C)NC(=O)[C@H](CC(C)C)NC(=O)[C@H](CCCCN)NC(=O)[C@H](CCCCN)NC(=O)[C@H](C)NC(=O)[C@H](CC(C)C)NC(=O)[C@H](CCCCN)NC(=O)[C@H](C)NC(=O)[C@H](CC(C)C)NC(=O)[C@H](CCCCN)NC(=O)[C@H](CCCCN)NC(=O)[C@H](C)NC(=O)[C@@H](N)Cc1ccccc1)C(=O)O [P61] : ____
OUTPUT: 66

----------
test system: BMKC; experiment: Anti-cancer assay, MTT, LD50; type: cell-based; details: BMKC cloned melanoma line, 24 hours with peptide
No end group written: not given here.
endpoint: LD50 BMKC (µg/mL)
Quick note: give the figure in µg/mL, leave out the unit.

Some substances with known LD50 BMKC results, for comparison:
KTKLFKKFAKKLAKKLKKLAKKL-OH [P80] ... 76
FAKKLAKKLL-NH2 [P59] ... 155
FALALKLAKKL-NH2 [P178] ... 640
KWKLFKKALKKLKKALKKAL-NH2 [P104] ... 100
FAKKLAKKLKKLAKKLAK-NH2 [Shiva 10(1-18)AM] ... 66

INPUT: Name the recorded LD50 BMKC for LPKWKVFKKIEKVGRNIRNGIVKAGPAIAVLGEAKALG-NH2 [P306, reference compound] .
OUTPUT: 170

INPUT: Fill blank: measured LD50 BMKC of the substance FAKKLAKKLKKLAKKLAKKWKL-OH [P72] is ____.
OUTPUT: 290

INPUT: Please give the measured LD50 BMKC for this substance: FALALKALKK-NH2 [P169]
OUTPUT: 530

INPUT: What measured LD50 BMKC goes with FALALKALKKLKKALKKAL-OH [P28] ?
OUTPUT: 93

Reference for the values: patent US20050209157A1
